# Experimental system: cynomolgus BCMA (cynomolgus (given as cyBCMA, Cyno))
# Sequence (chain, as listed by the source): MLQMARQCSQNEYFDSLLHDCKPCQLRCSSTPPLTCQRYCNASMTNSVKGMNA
# Test method notes: SPR, IgG immobilized, cyno BCMA analyte, 37 C
Property measured: kon (M⁻¹ s⁻¹)
Expressed in M⁻¹ s⁻¹, but write only the number.

Reference set (3 entries):
- Binder: "A02_Rd4_0.6nM_C18 (antibody, V domains shown) VH: EVQLLESGGGLVQPGGSLRLSCAASGFTFSSYAMNWVRQAPGKGLEWVSAVLDSGGSTYYADSVKGRFTISRDNSKNTLYLQMNSLRAEDTAVYYCARYWPMSLWGQGTLVTVSS VL: EIVLTQSPGTLSLSPGERATLSCRASQSVSELYLAWYQQKPGQAPRLLMYDASIRATGIPDRFSGSGSGTDFTLTISRLEPEDFAVYYCQQYFGWPLTFGQGTKVEIK"
  kon, M⁻¹ s⁻¹: "3.24e+06"
- Binder: "A02_Rd4_6nM_C04 (antibody, V domains shown) VH: EVQLLESGGGLVQPGGSLRLSCAASGFTFSSYAMNWVRQAPGKGLEWVSAIMSSGGPLYYADSVKGRFTISRDNSKNTLYLQMNSLRAEDTAVYYCARYWPMALWGQGTLVTVSS VL: EIVLTQSPGTLSLSPGERATLSCRASQSVSALYLAWYQQKPGQAPRLLMYDASIRATGIPDRFSGSGSGTDFTLTISRLEPEDFAVYYCQQYQVWPLTFGQGTKVEIK"
  kon, M⁻¹ s⁻¹: "2.18e+06"
- Binder: "A02_Rd4_6nM_C08 (antibody, V domains shown) VH: EVQLLESGGGLVQPGGSLRLSCAASGFTFSSYAMNWVRQAPGKGLEWVSAILDSGGSTYYADSVKGRFTISRDNSKNTLYLQMNSLRAEDTAVYYCARYWPMSPWGQGTLVTVSS VL: EIVLTQSPGTLSLSPGERATLSCRASQSVSFLYLAWYQQKPGQAPRLLMYDASIRATGIPDRFSGSGSGTDFTLTISRLEPEDFAVYYCQQYGSWPLTFGQGTKVEIK"
  kon, M⁻¹ s⁻¹: "2.23e+06"

Record request: kon value, item A02_Rd4_0.6nM_C06 (antibody, V domains shown) VH: EVQLLESGGGLVQPGGSLRLSCAASGFTFSSYAMNWVRQAPGKGLEWVSAISDSGGSAWYADSVKGRFTISRDNSKNTLYLQMNSLRAEDTAVYYCARYWPMSLWGQGTLVTVSS VL: EIVLTQSPGTLSLSPGERATLSCRASQSVSVLYLAWYQQKPGQAPRLLMYDASIRATGIPDRFSGSGSGTDFTLTISRLEPEDFAVYYCQQYQRWPLTFGQGTKVEIK
1.81e+06

Recorded values, source patent US20240018252A1.
